B1: tRNA (parent)
chain: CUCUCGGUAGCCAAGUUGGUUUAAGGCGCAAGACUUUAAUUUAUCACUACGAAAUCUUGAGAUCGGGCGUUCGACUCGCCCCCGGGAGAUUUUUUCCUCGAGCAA

- Variants of: B1
- MEASUREMENT_DESCRIPTION: nonsense suppression (GFP-seq) (ratio to wild type); higher = more function; SUP4oc tRNA, yeast GFP reporter sort-seq
Fewer inactive variants are shown than the library holds.
Outcome label depends on nonsense suppression relative to 0.3: at/above gives met, below gives not met.

# CONSTRUCT_SEQUENCE, DISCRETE_LABEL
measured = [
    ("CUCUCGGUUGCCAAGUUGGUUUAAGGCGCAAGACUUUAAUUUAUCACUACGAAAUCUUGAUAUCGGGCGUUCGACUCGCCCCCGGGAGAUUUUUUCCUCGAGCAA [A9U G61U]", "met"),
    ("CUCUCGGUAGCCAAGUUGGUUUAAGGUGCUAGACUUUAAUUUAUCACUACGAAAUCUUGAGAUCGGGCGUUCGACUCGCCCCCGCGAGAUUUUUUCCUCGAGCAA [C27U A30U G85C]", "not met"),
    ("CUCUCUGUAGCCAAGGUGGUUUAAGGCGCAAGACUUUAAUUUAUCACUACGAAAUCUUAAGAUCGGGCGUUCGACUCACCCCCGGGAGAUUUUUUCCUCGAGCAA [G6U U16G G59A G78A]", "not met"),
]

### Prompt Quick check, nonsense suppression >= 0.3? CUCUCGGUAGCCAAGUUGGUUUAAGGCGCAGGACUUUAAUUUAUCACUACGAAAUCUUGAGAGCGGGCGUUCGACUCGCCCCCGGGAGAUUUUUUCCUCGAGCAA [A31G U63G]
### Response not met

### Prompt Quick check, nonsense suppression >= 0.3? CUCUCGGUAGCCAAGUUGGUUUAAGGCUCAAGACUUUAAUUUAUCACUACGAAAUCUUGAUAUCGGGCGUUCGACUCGCCCCCGGGAGAUUUUUUCCUCGAGCAA [G28U G61U]
### Response not met

### Prompt Quick check, nonsense suppression >= 0.3? CUCUCGGUAGCCAAGUUGGUUUAAGGCGCAAGACUUUAAUUUAUCACUACGAAUUCUUGAGAUUGGGCGUUCGACUCGCCCCCGGGAGAUUUUUUCCUCGAGCAA [A54U C64U]
### Response not met
